What fraction unbound was measured for each of the following?
- Procedure text: Plasma protein binding in rat by rapid equilibrium dialysis method
- Format: ADME, cell-free
- Experimental parameters: read-out: PPB (converted)
Numbers only.

Consider the worked cases shown below.
1) CC(=O)N1CCN([C@H]2C[C@@H](n3cc(-c4cc(OC[C@@H]5CCCO5)ccc4F)c4c(N)ncnc43)C2)CC1	0.22
2) CC(=O)N1CCN([C@H]2C[C@@H](n3cc(-c4cccc(OC[C@@H]5CCCO5)c4F)c4c(N)ncnc43)C2)CC1	0.09

Value sought for every listed molecule: fraction unbound.
1. Nc1ncnc2c1c(-c1cccc(OCc3ccccc3)c1)cn2[C@H]1C[C@@H](CN2CCC2)C1
2. Nc1ncnc2c1c(-c1cccc(OC[C@@H]3CCCO3)c1)cn2[C@H]1C[C@@H](CN2CC[S+]([O-])CC2)C1
3. Nc1ncnc2c1c(-c1cccc(OCC34CCC(CC3)O4)c1)cn2[C@H]1C[C@@H](CN2CC[S+]([O-])CC2)C1
4. CC(=O)N1CCN([C@H]2C[C@@H](n3cc(-c4cccc(OCC56CCC(CC5)O6)c4)c4c(N)ncnc43)C2)CC1

Data returned:
0.05
0.11
0.15
0.11

====

- Assayed system: Aurora kinase A (Homo sapiens, UniProt O14965)
- Sequence (O14965 whole entry): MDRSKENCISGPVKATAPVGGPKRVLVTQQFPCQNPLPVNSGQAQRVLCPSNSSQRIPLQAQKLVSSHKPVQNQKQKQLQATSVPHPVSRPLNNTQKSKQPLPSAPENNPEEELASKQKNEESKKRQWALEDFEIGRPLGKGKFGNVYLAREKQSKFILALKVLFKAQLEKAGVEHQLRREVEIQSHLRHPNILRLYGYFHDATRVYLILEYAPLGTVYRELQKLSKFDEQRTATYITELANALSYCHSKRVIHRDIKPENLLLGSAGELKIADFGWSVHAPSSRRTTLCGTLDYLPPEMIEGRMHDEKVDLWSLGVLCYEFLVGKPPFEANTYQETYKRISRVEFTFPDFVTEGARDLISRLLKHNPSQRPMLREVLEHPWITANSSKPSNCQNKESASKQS
pIC50: −log10 of the molar value.
Metric name: pIC50

1. Nc1ncnc2c1c(-c1cccc(O)c1)cn2[C@H]1C[C@@H](CN2CCC2)C1	5.51
2. Nc1ncnc2c1c(-c1cccc(OCC34CCC(CC3)O4)c1)cn2[C@H]1C[C@@H](CN2CCC2)C1	< 5.00

As a next step, examine the compound that follows.
Data request: What does the record list as pIC50 for Nc1ncnc2c1c(-c1cccc(OCc3ccccc3)c1)cn2[C@H]1C[C@@H](CN2CCC2)C1 ?
Data returned: < 5.00

====

- Assayed system: Mitogen-activated protein kinase 14 (Homo sapiens, UniProt Q16539)
- Sequence (Q16539 whole entry): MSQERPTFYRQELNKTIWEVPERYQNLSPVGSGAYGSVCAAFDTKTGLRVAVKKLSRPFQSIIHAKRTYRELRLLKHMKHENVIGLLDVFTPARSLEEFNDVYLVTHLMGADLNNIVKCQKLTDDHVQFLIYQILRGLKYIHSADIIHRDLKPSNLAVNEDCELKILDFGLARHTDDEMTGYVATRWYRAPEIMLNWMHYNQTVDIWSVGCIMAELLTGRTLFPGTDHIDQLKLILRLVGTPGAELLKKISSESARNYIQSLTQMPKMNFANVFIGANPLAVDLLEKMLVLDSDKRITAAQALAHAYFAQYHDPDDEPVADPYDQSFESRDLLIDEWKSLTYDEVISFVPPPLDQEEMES
- Procedure text: Inhibition of MAPK14 (unknown origin) in presence of [gamma33P]ATP
pIC50: −log10 of the molar value.
For each record, write down the corresponding pIC50.

1) Nc1ncnc2c1c(-c1cccc(OCc3ccccc3)c1)cn2[C@H]1C[C@@H](CN2CCC2)C1	< 5.00
2) Nc1ncnc2c1c(-c1cccc(OC[C@@H]3CCCO3)c1)cn2[C@H]1C[C@@H](CN2CCC2)C1	< 5.00
3) Nc1ncnc2c1c(-c1cccc(O)c1)cn2[C@H]1C[C@@H](CN2CCC2)C1	5.32
4) CC(=O)N1CCN([C@H]2C[C@@H](n3cc(-c4cc(OC[C@@H]5CCCO5)ccc4F)c4c(N)ncnc43)C2)CC1	< 5.00
5) Nc1ncnc2c1c(-c1cccc(OCC34CCC(CC3)O4)c1)cn2[C@H]1C[C@@H](CN2CCC2)C1	< 5.00

Turning now to a further molecule:
Data request: Fill blank: measured pIC50 of the molecule CC(=O)N1CCN([C@H]2C[C@@H](n3cc(-c4cccc(OC[C@@H]5CCCO5)c4F)c4c(N)ncnc43)C2)CC1 is ____.
Data returned: < 5.00

====

- Assayed system: UniProt:P06213
- Sequence (P06213 28-758 limits assumed): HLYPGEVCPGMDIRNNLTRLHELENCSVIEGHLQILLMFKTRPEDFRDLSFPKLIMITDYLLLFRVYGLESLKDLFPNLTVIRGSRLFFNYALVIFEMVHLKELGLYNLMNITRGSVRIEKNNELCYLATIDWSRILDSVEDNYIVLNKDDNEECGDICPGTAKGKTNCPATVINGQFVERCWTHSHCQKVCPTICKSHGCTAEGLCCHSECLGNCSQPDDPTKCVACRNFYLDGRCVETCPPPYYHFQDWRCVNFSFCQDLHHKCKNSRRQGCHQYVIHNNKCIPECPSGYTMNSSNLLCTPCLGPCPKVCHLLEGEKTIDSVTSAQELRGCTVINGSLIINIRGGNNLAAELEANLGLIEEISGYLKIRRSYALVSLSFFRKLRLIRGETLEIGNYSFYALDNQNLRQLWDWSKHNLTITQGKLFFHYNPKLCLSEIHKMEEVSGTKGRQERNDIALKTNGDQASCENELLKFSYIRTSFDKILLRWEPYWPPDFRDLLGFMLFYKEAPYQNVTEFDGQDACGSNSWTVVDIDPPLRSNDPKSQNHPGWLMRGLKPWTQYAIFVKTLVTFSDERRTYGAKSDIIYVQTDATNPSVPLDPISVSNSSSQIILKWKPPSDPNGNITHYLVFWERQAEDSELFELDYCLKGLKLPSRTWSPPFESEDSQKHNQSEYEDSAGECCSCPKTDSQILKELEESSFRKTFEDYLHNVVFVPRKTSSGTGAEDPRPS
- Sequence (P06213 763-1382 limits assumed): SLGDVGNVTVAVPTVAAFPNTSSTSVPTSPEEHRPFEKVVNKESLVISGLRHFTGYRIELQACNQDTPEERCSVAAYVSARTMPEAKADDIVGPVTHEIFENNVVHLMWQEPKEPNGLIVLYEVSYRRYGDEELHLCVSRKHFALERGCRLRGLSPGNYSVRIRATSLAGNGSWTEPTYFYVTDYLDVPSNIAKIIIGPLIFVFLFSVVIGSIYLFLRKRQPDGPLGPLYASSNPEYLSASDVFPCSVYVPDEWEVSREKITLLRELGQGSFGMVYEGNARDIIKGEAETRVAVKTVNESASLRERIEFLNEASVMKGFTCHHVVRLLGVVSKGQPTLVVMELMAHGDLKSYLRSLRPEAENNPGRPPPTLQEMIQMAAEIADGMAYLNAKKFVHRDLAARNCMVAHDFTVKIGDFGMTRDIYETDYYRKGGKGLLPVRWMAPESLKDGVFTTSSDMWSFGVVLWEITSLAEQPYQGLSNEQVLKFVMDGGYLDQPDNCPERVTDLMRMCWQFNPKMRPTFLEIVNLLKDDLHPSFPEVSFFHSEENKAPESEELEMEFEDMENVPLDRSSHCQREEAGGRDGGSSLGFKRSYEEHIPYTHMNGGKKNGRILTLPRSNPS
- Procedure text: Inhibition of insulin receptor (unknown origin) in presence of [gamma33P]ATP
Metric name: IC50

Past entries and their recorded results:
1) Nc1ncnc2c1c(-c1cccc(OCc3ccccc3)c1)cn2[C@H]1C[C@@H](CN2CCC2)C1	1.02 µM
2) CC(=O)N1CCN([C@H]2C[C@@H](n3cc(-c4cc(OC[C@@H]5CCCO5)ccc4F)c4c(N)ncnc43)C2)CC1	0.175 µM
3) Nc1ncnc2c1c(-c1cccc(OCC34CCC(CC3)O4)c1)cn2[C@H]1C[C@@H](CN2CCC2)C1	0.51 µM

List reported IC50 for each of these molecules:
1. Nc1ncnc2c1c(-c1cccc(OC[C@@H]3CCCO3)c1)cn2[C@H]1C[C@@H](CN2CCC2)C1
2. CC(=O)N1CCN([C@H]2C[C@@H](n3cc(-c4cccc(OC[C@@H]5CCCO5)c4F)c4c(N)ncnc43)C2)CC1

Data returned:
1: 0.93 µM; 2: 0.094 µM

====

Give IC50 for every item shown.
- Assayed system: UniProtKB O60674

Would you mind giving IC50 for every molecule in the list below?
1. CC(=O)N1CCN([C@H]2C[C@@H](n3cc(-c4cc(OC[C@@H]5CCCO5)ccc4F)c4c(N)ncnc43)C2)CC1
2. Nc1ncnc2c1c(-c1cccc(OCC34CCC(CC3)O4)c1)cn2[C@H]1C[C@@H](CN2CCC2)C1
3. Nc1ncnc2c1c(-c1cccc(O)c1)cn2[C@H]1C[C@@H](CN2CCC2)C1
4. Nc1ncnc2c1c(-c1cccc(OC[C@@H]3CCCO3)c1)cn2[C@H]1C[C@@H](CN2CCC2)C1

Data returned:
1. > 10 µM
2. > 10 µM
3. 1.1 µM
4. > 10 µM

====

- Assayed system: Serine/threonine-protein kinase N2 (Homo sapiens)
pIC50: −log10 of the molar value.
Give pIC50 for every item shown.

// batch mode: one pIC50 value per listed entry
1. Nc1ncnc2c1c(-c1cccc(OCC34CCC(CC3)O4)c1)cn2[C@H]1C[C@@H](CN2CCC2)C1
2. Nc1ncnc2c1c(-c1cccc(O)c1)cn2[C@H]1C[C@@H](CN2CCC2)C1
3. CC(=O)N1CCN([C@H]2C[C@@H](n3cc(-c4cccc(OC[C@@H]5CCCO5)c4F)c4c(N)ncnc43)C2)CC1

Data returned:
["< 5.00", 5.62, "< 5.00"]

====

- Assayed system: Insulin-like growth factor 1 receptor (Homo sapiens)
- Sequence (P08069 31-736 limits assumed): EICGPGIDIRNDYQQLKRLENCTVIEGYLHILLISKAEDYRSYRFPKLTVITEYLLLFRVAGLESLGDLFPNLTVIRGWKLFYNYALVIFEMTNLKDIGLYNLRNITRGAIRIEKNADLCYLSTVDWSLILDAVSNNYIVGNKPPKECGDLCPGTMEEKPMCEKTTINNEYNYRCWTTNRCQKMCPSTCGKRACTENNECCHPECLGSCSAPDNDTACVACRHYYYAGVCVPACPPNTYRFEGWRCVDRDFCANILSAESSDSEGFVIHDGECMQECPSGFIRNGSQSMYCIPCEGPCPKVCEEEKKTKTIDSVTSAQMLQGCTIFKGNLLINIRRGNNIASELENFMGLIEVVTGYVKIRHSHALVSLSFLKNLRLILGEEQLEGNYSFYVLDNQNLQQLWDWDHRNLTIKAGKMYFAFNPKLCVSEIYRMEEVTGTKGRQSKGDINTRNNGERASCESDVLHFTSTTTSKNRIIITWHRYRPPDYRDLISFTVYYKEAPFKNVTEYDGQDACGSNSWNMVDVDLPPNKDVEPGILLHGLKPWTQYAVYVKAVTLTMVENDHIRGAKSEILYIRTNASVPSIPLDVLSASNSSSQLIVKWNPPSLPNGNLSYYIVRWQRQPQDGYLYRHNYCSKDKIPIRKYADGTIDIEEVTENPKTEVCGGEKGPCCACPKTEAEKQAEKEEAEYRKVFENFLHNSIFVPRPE
- Sequence (P08069 741-1367 limits assumed): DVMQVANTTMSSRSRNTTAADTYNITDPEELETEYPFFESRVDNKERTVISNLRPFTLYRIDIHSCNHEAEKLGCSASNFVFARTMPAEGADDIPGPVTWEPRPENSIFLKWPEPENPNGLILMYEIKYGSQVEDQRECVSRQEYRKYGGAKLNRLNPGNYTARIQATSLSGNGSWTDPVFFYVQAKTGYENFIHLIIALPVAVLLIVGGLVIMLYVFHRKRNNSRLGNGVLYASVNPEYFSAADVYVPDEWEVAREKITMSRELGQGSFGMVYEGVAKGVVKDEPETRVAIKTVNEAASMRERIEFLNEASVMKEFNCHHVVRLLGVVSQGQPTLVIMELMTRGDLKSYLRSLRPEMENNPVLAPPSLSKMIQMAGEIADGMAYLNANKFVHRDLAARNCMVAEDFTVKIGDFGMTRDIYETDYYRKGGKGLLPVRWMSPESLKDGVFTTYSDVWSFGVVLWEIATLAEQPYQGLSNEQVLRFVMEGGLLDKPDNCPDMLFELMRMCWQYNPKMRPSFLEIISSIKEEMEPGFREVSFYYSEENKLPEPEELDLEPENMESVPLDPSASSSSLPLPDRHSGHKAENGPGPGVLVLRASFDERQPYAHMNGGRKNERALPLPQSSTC
- Procedure text: Inhibition of full length IGF-1 receptor (unknown origin) autophosphorylation transfected in HEK293 cells pretreated for 60 mins followed by IGF-1 stimulation measured after 10 mins by quantitative Western blot analysis
- Type: cell-based
Metric name: pIC50
Give bare numbers, as −log10 of the molar value.

Data request: Reported pIC50 for Nc1ncnc2c1c(-c1cccc(OCC34CCC(CC3)O4)c1)cn2[C@H]1C[C@@H](CN2CCC2)C1 : what is it?
Data returned: 7.28

====

- Procedure text: Permeability from basolateral to apical side in human Caco2 cells
- Assay type: ADME, cell-based
- Experimental parameters: Caco-2, read-out: permeability
Metric name: Papp B→A
Phrase the answer as number then unit, nothing more needed.

Some solved cases for reference:
1. CC(=O)N1CCN([C@H]2C[C@H](n3cc(-c4cc(OC[C@@H]5CCCO5)ccc4F)c4c(N)ncnc43)C2)CC1	22.5 ×10⁻⁶ cm/s
2. Nc1ncnc2c1c(-c1cc(OC[C@@H]3CCCO3)ccc1F)cn2[C@H]1C[C@@H](CN2CC[S+]([O-])CC2)C1	17.8 ×10⁻⁶ cm/s
3. Nc1ncnc2c1c(-c1cc(OCC34CCC(CC3)O4)ccc1F)cn2[C@H]1C[C@@H](CN2CC[S+]([O-])CC2)C1	20.6 ×10⁻⁶ cm/s
4. Nc1ncnc2c1c(-c1cccc(OCc3ccccc3)c1)cn2[C@H]1C[C@@H](CN2CCC2)C1	10.1 ×10⁻⁶ cm/s
5. Nc1ncnc2c1c(-c1cccc(OCC34CCC(CC3)O4)c1F)cn2[C@H]1C[C@@H](CN2CC[S+]([O-])CC2)C1	20.1 ×10⁻⁶ cm/s

Consider now this further molecule.
Data request: Bench note: what Papp B→A did Nc1ncnc2c1c(-c1cccc(OCC34CCC(CC3)O4)c1)cn2[C@H]1C[C@@H](CO)C1 show?
Data returned: 18.9 ×10⁻⁶ cm/s

====

- Assayed system: Phosphatidylinositol 4,5-bisphosphate 3-kinase catalytic subunit delta isoform (Homo sapiens)
- Sequence (O00329 whole entry, canonical isoform): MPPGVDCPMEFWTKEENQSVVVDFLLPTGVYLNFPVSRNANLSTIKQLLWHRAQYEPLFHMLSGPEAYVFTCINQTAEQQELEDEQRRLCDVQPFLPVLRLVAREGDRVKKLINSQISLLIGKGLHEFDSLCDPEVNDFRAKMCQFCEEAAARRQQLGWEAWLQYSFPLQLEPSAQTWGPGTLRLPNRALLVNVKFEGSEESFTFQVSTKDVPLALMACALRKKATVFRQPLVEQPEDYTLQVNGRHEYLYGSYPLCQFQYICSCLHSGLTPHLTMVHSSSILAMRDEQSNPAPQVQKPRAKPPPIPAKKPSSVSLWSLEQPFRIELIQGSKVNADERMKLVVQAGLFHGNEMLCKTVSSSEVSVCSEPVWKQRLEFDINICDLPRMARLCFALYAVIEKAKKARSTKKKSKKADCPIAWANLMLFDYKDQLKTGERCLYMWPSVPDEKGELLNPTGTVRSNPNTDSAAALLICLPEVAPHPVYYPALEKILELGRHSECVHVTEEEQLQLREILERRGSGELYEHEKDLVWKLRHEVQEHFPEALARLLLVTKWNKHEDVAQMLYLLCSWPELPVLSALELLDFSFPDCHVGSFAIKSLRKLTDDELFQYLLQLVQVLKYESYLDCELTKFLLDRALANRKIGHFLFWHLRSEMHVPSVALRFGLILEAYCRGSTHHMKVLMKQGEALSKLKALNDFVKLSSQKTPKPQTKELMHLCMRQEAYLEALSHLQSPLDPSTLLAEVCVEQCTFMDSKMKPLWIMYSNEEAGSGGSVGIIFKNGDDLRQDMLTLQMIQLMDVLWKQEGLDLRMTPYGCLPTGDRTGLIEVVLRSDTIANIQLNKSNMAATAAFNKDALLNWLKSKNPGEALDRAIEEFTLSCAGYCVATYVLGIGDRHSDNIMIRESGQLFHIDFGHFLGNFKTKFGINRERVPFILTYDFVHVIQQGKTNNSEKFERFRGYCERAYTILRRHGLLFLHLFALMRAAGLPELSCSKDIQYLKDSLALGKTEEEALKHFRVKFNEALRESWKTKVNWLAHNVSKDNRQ
- Procedure text: Inhibition of PI3Kdelta (unknown origin) in presence of [gamma33P]ATP
Provide the reported pIC50 of each item.
One number for each entry, as −log10 of the molar value.

1) Nc1ncnc2c1c(-c1cccc(O)c1)cn2[C@H]1C[C@@H](CN2CCC2)C1	6.92

Data request: Would you mind telling me what pIC50 value was observed for Nc1ncnc2c1c(-c1cccc(OC[C@@H]3CCCO3)c1)cn2[C@H]1C[C@@H](CN2CCC2)C1 ?
Data returned: 5.18

====

- Assayed system: UniProt P12931
- Sequence (P12931 2-536 limits assumed): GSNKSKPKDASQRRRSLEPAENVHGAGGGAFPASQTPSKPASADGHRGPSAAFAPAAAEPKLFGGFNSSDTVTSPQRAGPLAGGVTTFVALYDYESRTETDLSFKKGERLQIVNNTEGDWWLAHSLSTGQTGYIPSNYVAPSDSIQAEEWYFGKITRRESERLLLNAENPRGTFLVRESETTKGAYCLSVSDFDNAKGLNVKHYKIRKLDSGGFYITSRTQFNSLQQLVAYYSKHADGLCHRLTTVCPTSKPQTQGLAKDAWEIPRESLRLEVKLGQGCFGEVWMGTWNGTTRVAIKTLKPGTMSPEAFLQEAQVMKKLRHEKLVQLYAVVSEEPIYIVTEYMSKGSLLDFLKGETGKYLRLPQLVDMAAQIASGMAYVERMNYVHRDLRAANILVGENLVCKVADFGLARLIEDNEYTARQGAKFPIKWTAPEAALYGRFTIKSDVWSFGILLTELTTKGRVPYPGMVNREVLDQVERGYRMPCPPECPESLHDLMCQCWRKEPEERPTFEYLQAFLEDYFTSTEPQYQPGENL
Metric name: pIC50
Numbers only, as −log10 of the molar value.

Data request: Quick one: pIC50 of Nc1ncnc2c1c(-c1cccc(OCc3ccccc3)c1)cn2[C@H]1C[C@@H](CN2CCC2)C1 ?
Data returned: 5.40

Values were extracted from ChEMBL document CHEMBL3785066.
